Target: T1, human myostatin (human, UniProt O14793 267-375, biotinylated in selections and radioactive assays (site not stated))
T1 construct: Phage ELISA used both unbiotinylated and biotinylated myostatin; also called biotinylated human myostatin; myostatin-biotin
T1 sequence (looked up): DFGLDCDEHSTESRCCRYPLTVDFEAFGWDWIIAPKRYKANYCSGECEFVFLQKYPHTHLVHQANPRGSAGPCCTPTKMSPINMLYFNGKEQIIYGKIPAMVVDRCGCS
Assay: radioactive equilibrium binding assay
Response field label takes condition met when Kd is strictly below 20 nM and condition not met in all other cases.

These solved cases illustrate the format of a correct answer.
BINDER	CATEGORY
39908-C11 (designed binder, group M3-A50; ΔS82, M83R; also called M22 (clone ID)) MTIPEIIIKVRGTQVVGSDMTVIVEFSNPFKETLRNVWVHLDGPGVTRPMKKMFSEIRTNATVQWEEVVRPWVSGHRKLIARCSLSPWHVYGELDVQIQRRDYKDDDDK	condition met
39908-A2 (designed binder, group M3-A50; ΔS82, M83R; also called M03 (clone ID)) MTIPEIIIKVRGTQVVGSDMTVIVEFTNPFKETLRNVWVHLDGPGVTRPMKKMFRDIRPKTKVQWEEVVRPWVSGHRKLIARCSLSPWHVYGELDVQIQRRDYKDDDDK	condition met
39908-H4 (designed binder, group M3-A50; ΔS82, M83R; also called M015 (clone ID)) MTIPEIIIKVRGTQVVGSDMTVIVEFSNPFKETLRNVWVHLDGPGVTRPMKKMFRDIRPKTKVQWEEVVRPWVSGHRKLIARCQLLPWHVYGELDVQIQRRDYKDDDDK	condition met
39885-F8 (designed binder, group M1-A; also called M7-L (clone ID)) MTIPEIIIKVRGTQVVGSDMTVIVEFTNPLKETLRNVWVHLDGPGVTRPMKKMFPAIPMNHKVQWEEVVRPWVSGHRKLIASMPQLFHLHVYGELDVQIQRRDYKDDDDK	condition not met

### Prompt Bench note: check whether 39885-C11 (designed binder, group M2-A) MTIPEIIIKVRGTQVVGSDMTVIVEFTNPLKETLRNVWVHLDGPGVTRPMKKMFPAIPMNHKVQWEEVVRPWVSGHRKLIASMINYFYKHVYGELDVQIQRRDYKDDDDK shows Kd below 20 nM
### Response condition not met

The measured values listed here are drawn from patent US20110059504A1.
